readout_type: melting point

For orientation, consider the following solved cases.
CCOC(=O)C1=C(C)N=C2SC=C(NC(=O)c3ccc(Cl)cc3)N2C1c1ccc(OC)cc1OC (stereo not drawn); 150 to 152 °C
CCOC(=O)C1=C(C)N=C2SC=C(NC(=O)CCl)N2C1c1ccc(OC)cc1OC (stereo not drawn); 150 to 152 °C
CCOC(=O)C1=C(C)N=C2SCC(=O)N2C1c1ccc(OC)cc1OC (stereo not drawn); 195 to 197 °C
CCOC(=O)C1=C(C)N=C2SC=C(N)N2C1c1ccc(OC)cc1OC (stereo not drawn); 172 to 174 °C
CCOC(=O)C1=C(C)N=c2sc(=Cc3cc(OC)c(OC)c(OC)c3)c(=O)n2C1c1ccc(OC)cc1OC (stereo not drawn); 190 to 192 °C

Shift focus to the following entry.
Would you mind telling me what melting point value was observed for CCOC(=O)C1=C(C)N=c2sc(=Cc3ccc(OC)cc3)c(=O)n2C1c1ccc(OC)cc1OC (stereo not drawn) ?
175 to 177 °C
